The reported measurements were obtained from patent US20230406825A1.

- Test system: ER− breast cancer cell lines (triple negative breast cancer cell line)
- assay procedure: Cell Titer-Glo dose dependent viability assay, ER- breast cancer cell lines
- Type: cell-based
- measurement conditions: ER− breast cancer cell lines, 72 hours, Cell Titer-Glo
pIC50: −log10 of the molar value.
value type: pIC50

Form field: pIC50 recorded for Cc1cc(Cc2ccccc2)n(O)c(=O)c1 with ER− breast cancer cell lines (triple negative breast cancer cell line) (enter value)
< 5.00
